The measurements presented in this section are drawn from patent US20230331827A1.

A collection of binders and their measured Fold difference (Kv1.1 IC50 against Kv1.3 IC50)
target: human Kv1.3 (human) (UniProt P22001); test: cell-based or functional assay
Sequence (P22001 whole entry): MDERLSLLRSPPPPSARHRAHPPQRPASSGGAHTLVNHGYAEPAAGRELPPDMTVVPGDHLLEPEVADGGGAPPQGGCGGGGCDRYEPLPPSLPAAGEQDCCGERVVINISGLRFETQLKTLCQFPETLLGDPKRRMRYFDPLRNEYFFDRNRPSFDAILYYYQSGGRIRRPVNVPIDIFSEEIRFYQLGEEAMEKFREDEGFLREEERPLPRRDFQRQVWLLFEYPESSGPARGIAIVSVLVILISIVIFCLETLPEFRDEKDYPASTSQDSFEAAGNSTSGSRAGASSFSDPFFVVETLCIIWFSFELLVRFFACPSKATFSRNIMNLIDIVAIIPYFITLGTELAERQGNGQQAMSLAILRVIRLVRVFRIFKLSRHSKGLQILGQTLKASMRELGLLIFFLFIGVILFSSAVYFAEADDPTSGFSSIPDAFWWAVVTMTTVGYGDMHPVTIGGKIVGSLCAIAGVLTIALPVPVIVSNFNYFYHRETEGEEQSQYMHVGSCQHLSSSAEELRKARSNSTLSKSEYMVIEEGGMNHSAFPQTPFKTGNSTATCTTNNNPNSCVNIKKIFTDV
measured_endpoint: Fold difference (Kv1.1 IC50 against Kv1.3 IC50)

[[record]]
binder = "KB_A12_AnTx-N17A/F32T (antibody, V domains shown) VH: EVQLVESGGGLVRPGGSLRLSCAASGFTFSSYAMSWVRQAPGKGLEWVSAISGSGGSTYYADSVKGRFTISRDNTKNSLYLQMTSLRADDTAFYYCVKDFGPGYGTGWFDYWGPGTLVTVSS VL: QSVLTQPPSVSEAPRQRVTITCSGSSSNIGNNAVNWYQQLPGKAPKLLIYAAGRQKECTGPQHCTNFCRKAKCTHGKCMNRKCKCTNCKANSGVSDRFSAAKSGTSASLAINGLRSEDEADYYCAAWDDSLNGYVFGTGTKLTVLG"
result = "94 fold"

[[record]]
binder = "KB_A12_KTX (antibody) VH: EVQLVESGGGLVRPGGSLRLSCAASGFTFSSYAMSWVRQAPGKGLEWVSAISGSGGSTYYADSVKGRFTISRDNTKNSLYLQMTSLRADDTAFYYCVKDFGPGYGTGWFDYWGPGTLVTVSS VL: QSVLTQPPSVSEAPRQRVTITCSGSSSNIGNNAVNWYQQLPGKAPKLLIYAAGRGVEINVKCSGSPQCLKPCKDAGMRFGKCMNRKCHCTPKANSGVSDRFSAAKSGTSASLAINGLRSEDEADYYCAAWDDSLNGYVFGTGTKLTVLGQP"
result = "3 fold"

[[record]]
binder = "KB_A12_Odk2 short (antibody, V domains shown) VH: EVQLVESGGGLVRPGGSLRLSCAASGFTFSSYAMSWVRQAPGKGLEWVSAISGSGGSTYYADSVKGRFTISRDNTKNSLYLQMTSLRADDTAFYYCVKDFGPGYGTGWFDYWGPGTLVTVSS VL: NWYQQLPGKAPKLLIYAAGRVKCRGSPQCIQPCKDAGMRFGKCMNGKCHCTPKANSGVSDRFSAAKSGTSASLAINGLRSEDEADYYCAAWDDSLNGYVFGTGTKLTVLG"
result = "8 fold"

